B1: tRNA (parent)
chain: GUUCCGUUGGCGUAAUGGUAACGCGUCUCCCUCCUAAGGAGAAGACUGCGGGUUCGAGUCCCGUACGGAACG

# Variants of: B1
# Test Summary: yeast fitness relative to wild type (ratio to wild type); higher = fitter; tRNA-Arg(CCU), competitive growth, 37 C, YPD
This sample holds only a part of the variants without activity.

| Sequence Change | Comparator | yeast fitness |
| --- | --- | --- |
| C49A C61U | = | 0.607 |
| C34A C46U | = | 0.615 |
| U26G A45C | = | 0.795 |
| G18A C46U | = | 0.749 |
| G9A U16C G41A G58A | ≤ | 0.5 |
| U16C C55G | = | 0.669 |
| U32A A37C G51C A57U | ≤ | 0.5 |
| C33G A45U G51C | ≤ | 0.5 |
| U13G U35G A40G C61A | ≤ | 0.5 |
| U3C C29U C30G G39C C60A | ≤ | 0.5 |
| U2C G23A C24U A45U C60A | = | 0.61 |
| C4U A14G G48C | = | 0.659 |
| A43U C60G C66U | = | 0.534 |
| G10C G18A C22U | = | 0.633 |
| C24G U59G A65U | = | 0.659 |
| C4A G6C G10A U28A | ≤ | 0.5 |
| C11G G25A A36U C60U | ≤ | 0.5 |
| C11G U28A G39A G48A G67A | ≤ | 0.5 |
| C11G G25A A37U | = | 0.573 |
| A15C A36G G39C C55U C66U | ≤ | 0.5 |
| C27U C31U G48A | = | 1 |
| C11U U13C U28C A42U C55A G56A | ≤ | 0.5 |
| G12C G56A | = | 0.838 |
| C11A G25A C46G A57U | ≤ | 0.5 |
| G50C A57C C61U | = | 0.613 |
| A43C G63C | = | 0.692 |
| U2G G52A G56A | = | 0.81 |
| C11A U16C U32G G48A C49G C55A | ≤ | 0.5 |
| U19A U59G | = | 0.793 |
| G56C C62U | = | 0.913 |
| C30A G41A U47C | = | 0.559 |
| U16A G18C A20G C22U U54G C55A | = | 0.512 |
| G9A C55G U64A | ≤ | 0.5 |
